Data provenance is the Deep4Chem optical property database.

experiment: solvent given as SMILES; conditions: in Cc1ccccc1
# cutoff 6 ns applies to fluorescence lifetime; >= gives fulfilled, < gives not fulfilled

Example cases with answers are listed next.
# smiles_entry, label
data = [
    ("C#CCNC1=C2C=CC=[N+]2[B-](F)(F)n2cccc21", "fulfilled"),
    ("c1cc2ccc3ccc4cc3c2cc1CCCCCCc1ccc2ccc3ccc-4cc3c2c1", "fulfilled"),
    ("CCN(CC)c1ccc2cc(/C(Cl)=C/C=C/C(=C(C#N)C#N)c3ccc(N(c4ccccc4)c4ccccc4)cc3)c(=O)oc2c1", "not fulfilled"),
    ("COc1nc(Nc2ccc3c4c(cccc24)C(=O)c2ccccc2-3)nc(OC)n1", "not fulfilled"),
    ("O=C(O)c1ccc2ccc3cccc4ccc1c2c34", "fulfilled"),
    ("N#Cc1c(-n2c3ccc(I)cc3c3cc(I)ccc32)c(-n2c3ccc(I)cc3c3cc(I)ccc32)c(C#N)c(-n2c3ccc(I)cc3c3cc(I)ccc32)c1-n1c2ccc(I)cc2c2cc(I)ccc21", "not fulfilled"),
]

Ask: Form field: fluorescence lifetime at least 6 ns? Entry: COc1ccc(N(c2ccc(OC)cc2)c2ccc3ccc4c(B(c5c(C)cc(C)cc5C)c5c(C)cc(C)cc5C)ccc5ccc2c3c54)cc1
Reply: fulfilled

Ask: Form field: fluorescence lifetime at least 6 ns? Entry: O=S(=O)(c1ccc(-c2ccc(-n3c4ccccc4c4ccccc43)cc2)cc1)c1ccc(-c2ccc(-n3c4ccccc4c4ccccc43)cc2)cc1
Reply: not fulfilled

Ask: Form field: fluorescence lifetime at least 6 ns? Entry: COc1nc(Cl)nc(Nc2ccc3c4c(cccc24)C(=O)c2ccccc2-3)n1
Reply: not fulfilled

Ask: Form field: fluorescence lifetime at least 6 ns? Entry: CCCCCCC(CCCCCC)N1C(=O)c2cccc3c(-c4ccc(OC)cc4)ccc(c23)C1=O
Reply: not fulfilled

Ask: Form field: fluorescence lifetime at least 6 ns? Entry: CN(C)c1ccc(C2=Cc3cc(Cl)nc[n+]3[B-](F)(F)O2)cc1
Reply: not fulfilled

Ask: Form field: fluorescence lifetime at least 6 ns? Entry: Fc1c(F)c(-n2c3ccccc3c3ccccc32)c(F)c(F)c1-c1nnc(-c2ccccc2)o1
Reply: fulfilled

Ask: Form field: fluorescence lifetime at least 6 ns? Entry: CC1(C)c2ccccc2N(c2ccc(-c3cc(-c4ccccc4)nc(-c4ccccc4)n3)cc2)c2ccccc21
Reply: not fulfilled

Ask: Form field: fluorescence lifetime at least 6 ns? Entry: c1ccc(-c2nnc(-c3ccc(N4c5ccccc5N(c5ccccc5)c5ccccc54)cc3)n2-c2ccccc2)cc1
Reply: not fulfilled

Ask: Form field: fluorescence lifetime at least 6 ns? Entry: Cc1cc(C)n2c1C=C1c3ccccc3C(c3ccc[nH]3)=[N+]1[B-]2(F)F
Reply: fulfilled

Ask: Form field: fluorescence lifetime at least 6 ns? Entry: Cn1ccc(-c2nc3ccccc3nc2/C=C/N2CCCC2)c1
Reply: not fulfilled

Ask: Form field: fluorescence lifetime at least 6 ns? Entry: Cc1cc(-c2ccc(-c3ccccc3)cc2)nc(-c2ccc(-n3c4ccccc4c4ccccc43)cc2)n1
Reply: not fulfilled

Ask: Form field: fluorescence lifetime at least 6 ns? Entry: CC1=C(c2ccccc2)C(C)=[N+]2C1=C(c1ccccc1)c1c(C)c(-c3ccccc3)c(C)n1[B-]2(F)F
Reply: not fulfilled

Ask: Form field: fluorescence lifetime at least 6 ns? Entry: CC(C)(C)c1ccc2c(c1)c1cc(C(C)(C)C)ccc1n2-c1ccc(C(=CC#N)c2ccc(-n3c4ccc(C(C)(C)C)cc4c4cc(C(C)(C)C)ccc43)cc2)cc1
Reply: not fulfilled

Ask: Form field: fluorescence lifetime at least 6 ns? Entry: CCOC(=O)c1ccc(NC(=O)COc2cc3c4c([nH]c3c(C)c2C)C(=O)CCC4)cc1
Reply: not fulfilled

Ask: Form field: fluorescence lifetime at least 6 ns? Entry: CC(C)(C)c1ccc(-c2nnc(-c3c(-n4c5ccccc5c5ccccc54)c(-n4c5ccccc5c5ccccc54)c(-c4nnc(-c5ccc(C(C)(C)C)cc5)o4)c(-n4c5ccccc5c5ccccc54)c3-n3c4ccccc4c4ccccc43)o2)cc1
Reply: fulfilled

Ask: Form field: fluorescence lifetime at least 6 ns? Entry: N#Cc1c(-n2c3ccccc3c3ccccc32)cccc1-n1c2ccccc2c2ccccc21
Reply: not fulfilled

Ask: Form field: fluorescence lifetime at least 6 ns? Entry: Cc1ccc(-c2ccc(/C=C/c3cccn3C)cn2)nc1
Reply: not fulfilled

Ask: Form field: fluorescence lifetime at least 6 ns? Entry: c1ccc([B-]2(c3ccccc3)Oc3ccc4ccccc4c3-c3c4ccccc4cn[n+]32)cc1
Reply: fulfilled
